- SUBJECT OF TEST: Focal adhesion kinase 1 (Homo sapiens)
- ASSAY NAME: small-molecule microarray binders of FAK, primary screen, biochemical, 635/667 nm fluorescence, BSA, DTT (AID 1130);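 note: composite of spot emission at 667 nm and signal to noise over triplicate slides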
- MEASUREMENT SETUP: PTK2 binding, 635 nm fluorescence, higher = more signal
REPORTED METRIC: composite z-score

- COMPOUND: "CC(=O)c1ccc(C(O)C2C=CC3C(=O)N(C)C(=O)C3N2NC(=O)OC(C)(C)C)cc1 (configuration not stated)"
  TEST VALUE: 1.54
- COMPOUND: "COCCOC(=O)N1C(=O)[C@@]2(c3cc(C#CC4(O)CCCCCC4)ccc31)[C@H](c1ccc(OCCO)cc1)N1[C@H](c3ccccc3)[C@H](c3ccccc3)OC(=O)[C@H]1[C@@H]2C(=O)N1CCCCCCC1"
  TEST VALUE: 0.175
- COMPOUND: "COC(=O)[C@@]1(Cc2ccccc2)[C@@H]2[C@@H](CC(=O)[C@H]2CC(=O)C(=O)N(C)C)CN1C(=O)c1ccccc1"
  TEST VALUE: 0.434
- COMPOUND: "COC(=O)c1c(CC[C@@H](CO)NC(=O)N[C@@H](Cc2ccccc2)Cn2cc(-c3cncn3C)nn2)oc(C(C)=O)c1C(=O)OC"
  TEST VALUE: -0.179
- COMPOUND: "CC(C)C[C@H]1NC(=O)[C@H](Cc2ccccc2)NC(=O)[C@@]23C(=O)N[C@@H](Cc4ccccc4)C2[C@H](C)[C@@]2(C)O[C@H]2C3/C=C/C/C=C\\CNC1=O (some centres not stated)"
  TEST VALUE: 0.899
- COMPOUND: "COc1cccc(C[C@H]2C[C@@H](CO[Si](C(C)C)(C(C)C)C(C)C)N3C(=O)[C@@]4(C(C)=O)O[C@@]23[C@@H]2C(=O)N(C)C(=O)[C@@H]24)c1"
  TEST VALUE: 0.0669
- COMPOUND: "CC(C)(C)N1CC=CC23O[C@@H]4/C=C\\CCCOC(=O)C4[C@H]2C(=O)N(CCCCCCO)[C@@H]3C1=O (some centres not stated)"
  TEST VALUE: -0.639
